// provenance: patent US20200354457A1

Target: T1, recombinant human LAG3 Fc Chimera Protein (R&D Systems, 2319-L3) (human, UniProt P18627 23-450)
T1 construct: Bought reagent
T1 sequence (looked up): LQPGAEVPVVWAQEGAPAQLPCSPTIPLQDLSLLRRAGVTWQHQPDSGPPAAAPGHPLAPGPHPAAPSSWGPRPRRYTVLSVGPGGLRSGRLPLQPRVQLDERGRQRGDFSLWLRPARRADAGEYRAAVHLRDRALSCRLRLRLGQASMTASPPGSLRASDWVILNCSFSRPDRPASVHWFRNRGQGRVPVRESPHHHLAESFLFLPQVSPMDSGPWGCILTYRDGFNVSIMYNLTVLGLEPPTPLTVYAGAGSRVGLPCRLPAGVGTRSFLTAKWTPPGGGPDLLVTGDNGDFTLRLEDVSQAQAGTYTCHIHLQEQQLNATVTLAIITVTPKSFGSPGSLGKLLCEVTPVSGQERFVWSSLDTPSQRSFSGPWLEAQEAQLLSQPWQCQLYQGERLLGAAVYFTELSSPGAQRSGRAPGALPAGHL
Test: SPR (Biacore), aVH-Fc captured by anti-human Fc, human LAG-3 Fc chimera as analyte, 25 C
Overview of recorded t1/2 for various binders
Kindly answer with a numeric value in min, unit omitted.

1) bivalent 21B11 aVH-Fc (Fc fusion) EVQLVESGGGLVQPGGSLRLSCAASGFNIKDTCIGWVRRAPGKGTELVAEICQDIGYTRYADSVKGRFTISADTSKNTAYLQMNSLRAEDTAVYYCAADESVDNFKYWGQGTTVTVSSGGGGSGGGGSDKTHTCPPCPAPEAAGGPSVFLFPPKPKDTLMISRTPEVTCVVVDVSHEDPEVKFNWYVDGVEVHNAKTKPREEQYNSTYRVVSVLTVLHQDWLNGKEYKCKVSNKALGAPIEKTISKAKGQPREPQVYTLPPSRDELTKNQVSLTCLVKGFYPSDIAVEWESNGQPENNYKTTPPVLDSDGSFFLYSKLTVDKSRWQQGNVFSCSVMHEALHNHYTQKSLSLSPGK; 107

Switching to the query record.
(Q) Answer with the recorded t1/2 for the binder listed here: bivalent P21A03 aVH-Fc (Fc fusion) EVQLVESGGGLVQPGGSLRLSCAASGFNIKDTCIGWVRRAPGKGTELVAEICEDIGYTRYADSVKGRFTISADTSKNTAYLQMNSLRAEDTAVYYCAANEHSVGFNYWGQGTTVTVSSGGGGSGGGGSDKTHTCPPCPAPEAAGGPSVFLFPPKPKDTLMISRTPEVTCVVVDVSHEDPEVKFNWYVDGVEVHNAKTKPREEQYNSTYRVVSVLTVLHQDWLNGKEYKCKVSNKALGAPIEKTISKAKGQPREPQVYTLPPSRDELTKNQVSLTCLVKGFYPSDIAVEWESNGQPENNYKTTPPVLDSDGSFFLYSKLTVDKSRWQQGNVFSCSVMHEALHNHYTQKSLSLSPGK
(A) 1160
